Test system: Bacillus subtilis
Assay overview: Anti-biofilm activity against Bacillus subtilis MTCC 121 assessed as inhibition of biofilm formation incubated for 24 hrs by crystal violet staining based modified biofilm inhibition assay
Format: functional, organism-based
Conditions used: MTCC 121, 24 h
Rule: IC50 below 10 µM gives satisfied, anything at or above gives not satisfied.

Incoming: Hi there! Is IC50 for CCCCCCC(C/C=C\CCCCCCCC(=O)OC)/N=C\c1ccc(N(C)C)cc1 (stereo not given) below 10 µM, do you know?
Outgoing: not satisfied

Incoming: Ok, now CCCCCCC(C/C=C\CCCCCCCC(=O)OC)/N=C\c1ccc(OC)c(OC)c1 (stereo not given)
Outgoing: not satisfied

Incoming: Ok, now CCCCCCC(C/C=C\CCCCCCCC(=O)OC)/N=C\c1ccc(O)cc1 (stereo not given)
Outgoing: not satisfied

Incoming: Ok, now O=C(O)c1cn(C2CC2)c2cc(N3CCNCC3)c(F)cc2c1=O [CIPROFLOXACIN]
Outgoing: satisfied

Incoming: Ok, now CCCCCCC(C/C=C\CCCCCCCC(=O)OC)/N=C\c1c[nH]c2ccccc12 (stereo not given)
Outgoing: not satisfied

Incoming: Ok, now CCCCCCC(C/C=C\CCCCCCCC(=O)OC)/N=C\c1ccc(Cl)cc1 (stereo not given)
Outgoing: satisfied

Incoming: Ok, now CCCCCCC(C/C=C\CCCCCCCC(=O)OC)/N=C\c1ccc(O)c(OC)c1 (stereo not given)
Outgoing: not satisfied

Incoming: Ok, now CCCCCCC(C/C=C\CCCCCCCC(=O)OC)/N=C\C=C\c1ccc(N(C)C)cc1 (stereo not given)
Outgoing: not satisfied

Incoming: Ok, now CCCCCCC(C/C=C\CCCCCCCC(=O)OC)/N=C\c1ccc(OC)cc1 (stereo not given)
Outgoing: satisfied

Incoming: Ok, now CCCCCCC(C/C=C\CCCCCCCC(=O)OC)/N=C\c1cc(OC)c(O)c(OC)c1 (stereo not given)
Outgoing: satisfied
